- System: Clupea
- Assay notes: Effect on thermal melting point of herring testes DNA at 10 uM
Outcome measure: Tm (°C)
Dear colleague, please return just the value in °C, with no unit written.

Sample records with Tm:
# Entry smiles, Target entity, Tm / °C
rows = [
    ("NCCCNCCCN", "Clupea", 77),
    ("NCCCN(CCCN)CC(=O)O", "Clupea", 61),
    ("C#CCNC(=O)CN(CCCN)CCCN", "Clupea", 58),
    ("NCCCN(CCCN)CC(=O)NCC#Cc1nc(N)c2ncn([C@@H]3O[C@H](CO)[C@@H](O)[C@H]3O)c2n1", "Clupea", 66),
]

Problem: Look up Tm for this compound: "NCCCN(CCCN)CC(=O)NCC#Cc1cn([C@@H]2O[C@H](CO)[C@@H](O)[C@H]2O)c(=O)[nH]c1=O"
Solution: 66.5

----------
- Tested on: HCC1937
- Assay notes: Toxicity in human HCC1937 cells after 48 hrs by MTT assay
- Type: cell-based
- Conditions used: hcc1937, 48 h
Outcome measure: Activity

Sample records with Activity:
# Entry smiles, Activity
measured = [
    ("NCCCNCCCN", "Non-toxic"),
    ("C#CCNC(=O)CN(CCCN)CCCN", "Non-toxic"),
    ("NCCCN(CCCN)CC(=O)NCC#Cc1nc(N)c2ncn([C@@H]3O[C@H](CO)[C@@H](O)[C@H]3O)c2n1", "Non-toxic"),
    ("NCCCN(CCCN)CC(=O)NCC#Cc1cn([C@@H]2O[C@H](CO)[C@@H](O)[C@H]2O)c(=O)[nH]c1=O", "Non-toxic"),
]

--- query ---
Problem: Look up Activity for this compound: "NCCCN(CCCN)CC(=O)O"
Solution: Non-toxic

----------
- Test system: Clupea
- Assay notes: Effect on thermal melting point of herring testes DNA at 10 uM
Below: a set of entries, each annotated with reported ΔTm.
Dear colleague, please return just the value in °C, with no unit written.

Sample records with ΔTm:
# Entry smiles, ΔTm [°C]
data = [
    ("NCCCN(CCCN)CC(=O)NCC#Cc1cn([C@@H]2O[C@H](CO)[C@@H](O)[C@H]2O)c(=O)[nH]c1=O", 1.5),
    ("NCCCN(CCCN)CC(=O)O", -4),
    ("NCCCN(CCCN)CC(=O)NCC#Cc1nc(N)c2ncn([C@@H]3O[C@H](CO)[C@@H](O)[C@H]3O)c2n1", 1),
    ("C#CCNC(=O)CN(CCCN)CCCN", -7),
]

Problem: Lookup: ΔTm / Clupea / "NCCCNCCCN"
Solution: 12

// data source = ChEMBL document CHEMBL1140487
